This section presents compounds with their documented % assay/degs, difference from T = 0 values.
Format: physicochemical
measurementSetup: pH 3.5; Ambient; 48 h
# number only, unit % dropped from output

Look over these answered cases.
> print(dat)
                               smilesrecord  assayvalue
1  CCC(CC)COC(=O)[C@H](C)N[P@](=O)(OC[C@H]1O[C@@](C#N)(c2ccc3c(N)ncnn23)[C@H](O)[C@@H]1O)Oc1ccccc1         0.3
2  CCC(CC)COC(=O)[C@H](C)N[P@](=O)(OC[C@H]1O[C@@](C(N)=O)(c2ccc3c(N)ncnn23)[C@H](O)[C@@H]1O)Oc1ccccc1        0.00
3  N#C[C@@]1(c2ccc3c(N)ncnn23)O[C@H](CO)[C@@H](O)[C@H]1O        0.00

// switching to the query compound
**Q:** Return value of % assay/degs, difference from T = 0 for input "N#C[C@@]1(c2ccc3c(N)ncnn23)O[C@H](COP(=O)(O)Oc2ccccc2)[C@@H](O)[C@H]1O" , no commentary.
**A:** 0.05

* * *

procedureText: Plasma PK of Formula Ia and metabolites after inhalation in African Green Monkeys
measurementSetup: both, monkey, in vivo, inhaled or intranasal, 0.536 mg/kg
attributeMeasured: AUC(0-t) (µM·h)
Provide the reading as a plain figure in µM·h.

**Q:** Name the recorded AUC(0-t) of the item "N#C[C@@]1(c2ccc3c(N)ncnn23)O[C@H](CO)[C@@H](O)[C@H]1O" in your answer.
**A:** 0.539

* * *

procedureText: Plasma PK of Formula Ia and metabolites after inhalation in African Green Monkeys
measurementSetup: both, monkey, in vivo, 0.536 mg/kg
attributeMeasured: concentration at 2 h

**Q:** Give concentration at 2 h for "N#C[C@@]1(c2ccc3c(N)ncnn23)O[C@H](CO)[C@@H](O)[C@H]1O"
**A:** 71 nM

* * *

Assay type: physicochemical
measurementSetup: pH 4.0; Ambient; 7.2 h
Reported % assay/degs, difference from T = 0 values for the following compounds.
State just the number; it will be interpreted in %.

Guide cases for % assay/degs, difference from T = 0, answers given:
> print(dat)
                               smilesrecord                    attributemeasured  assayvalue
1  N#C[C@@]1(c2ccc3c(N)ncnn23)O[C@H](COP(=O)(O)Oc2ccccc2)[C@@H](O)[C@H]1O  % assay/degs, difference from T = 0        0.00
2  N#C[C@@]1(c2ccc3c(N)ncnn23)O[C@H](CO)[C@@H](O)[C@H]1O  % assay/degs, difference from T = 0        0.00
3  CCC(CC)COC(=O)[C@H](C)N[P@](=O)(OC[C@H]1O[C@@](C(N)=O)(c2ccc3c(N)ncnn23)[C@H](O)[C@@H]1O)Oc1ccccc1  % assay/degs, difference from T = 0        0.00

Now consider the entry below.
**Q:** For the compound "CCC(CC)COC(=O)[C@H](C)N[P@](=O)(OC[C@H]1O[C@@](C#N)(c2ccc3c(N)ncnn23)[C@H](O)[C@@H]1O)Oc1ccccc1" , give its measured % assay/degs, difference from T = 0 value.
**A:** 0.3

* * *

Reported % assay/degs, difference from T = 0 by item:
Type: physicochemical
measurementSetup: pH 3.5; 2-8° C.; 48 h
Please give a number only; it is taken to be in %.

Here is how some molecules turned out for % assay/degs, difference from T = 0.
> print(dat)
                               smilesrecord                    attributemeasured  unittext  assayvalue
1  N#C[C@@]1(c2ccc3c(N)ncnn23)O[C@H](COP(=O)(O)Oc2ccccc2)[C@@H](O)[C@H]1O  % assay/degs, difference from T = 0         %        0.01
2  N#C[C@@]1(c2ccc3c(N)ncnn23)O[C@H](CO)[C@@H](O)[C@H]1O  % assay/degs, difference from T = 0         %        0.00
3  CCC(CC)COC(=O)[C@H](C)N[P@](=O)(OC[C@H]1O[C@@](C#N)(c2ccc3c(N)ncnn23)[C@H](O)[C@@H]1O)Oc1ccccc1  % assay/degs, difference from T = 0         %         0.5

Turning now to a further record.
**Q:** Dear colleague, please send me the reported % assay/degs, difference from T = 0 for "CCC(CC)COC(=O)[C@H](C)N[P@](=O)(OC[C@H]1O[C@@](C(N)=O)(c2ccc3c(N)ncnn23)[C@H](O)[C@@H]1O)Oc1ccccc1" when you can.
**A:** 0.00
